assay text: Cytotoxicity against A549 cells (CellTiter-Glo)
Format: cell-based
condition set: human, A549 cells
parameter measured: LC50 (50% lethal concentration) (µM)
Numbers only here, please. The scale is µM.

Record Nc1nc2ccc(C(=O)N(Cc3ccc(Cl)c(Cl)c3)C3CC3)cc2s1 [Compound 1c] , field LC50 (50% lethal concentration): 100

Then there is this compound:
LC50 (50% lethal concentration) measured on Nc1nc2ccc(CN(Cc3ccc(Cl)c(Cl)c3)C3CC3)cc2s1 [Compound 1d] = 63.1

---

study target: CYP2C19 (Homo sapiens, UniProt P33261)
Construct: purchased Promega; host or cells: baculovirus-infected insect cells
Sequence (P33261 whole entry): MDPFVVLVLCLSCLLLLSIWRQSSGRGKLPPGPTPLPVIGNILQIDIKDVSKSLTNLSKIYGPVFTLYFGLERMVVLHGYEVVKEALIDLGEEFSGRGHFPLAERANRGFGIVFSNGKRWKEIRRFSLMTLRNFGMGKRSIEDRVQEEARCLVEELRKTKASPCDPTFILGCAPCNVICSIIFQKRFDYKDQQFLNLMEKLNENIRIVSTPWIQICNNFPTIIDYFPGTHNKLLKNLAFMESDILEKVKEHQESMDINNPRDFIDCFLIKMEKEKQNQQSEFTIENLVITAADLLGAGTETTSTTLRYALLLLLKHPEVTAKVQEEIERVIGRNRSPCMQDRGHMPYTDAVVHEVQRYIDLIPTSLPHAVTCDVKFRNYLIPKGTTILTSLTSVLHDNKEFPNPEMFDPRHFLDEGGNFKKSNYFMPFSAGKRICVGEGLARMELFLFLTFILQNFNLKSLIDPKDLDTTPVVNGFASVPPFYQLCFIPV
assay text: Cytochrome P450 assay (P450-Glo), isoform 2C19
Format: in vitro ADME
Source text: 3A4. The Promega P450-Glo assay platform was used with microsomal preparations of cytochrome P450s from baculovirus-infected insect cells. […]
parameter measured: pIC50
Quick note: pIC50 values are minus log10 of concentrations in mol/L.

Data point: `Nc1nc2ccc(C(=O)NCCc3cccc(Cl)c3)cc2s1` ; pIC50 = 5.20

---

Recorded CC50 at 72 h by entry
assay text: Cytotoxicity assay (MTT) on THP-1-derived macrophages
Assay type: cell-based, Human
condition set: human, THP-1-derived macrophages, lower limit of CC50 interval; read-out: THP1 CC50 lower limit

// CC50 at 72 h value for `Nc1nc2ccc(C(=O)NCCc3cccc(Br)c3)cc2s1` : > 50 µM

Recorded result, `Nc1nc2ccc(CN(Cc3ccc(Cl)c(Cl)c3)C3CC3)cc2s1` , CC50 at 72 h: > 25 µM

Just so you know, measured CC50 at 72 h for `Nc1nc2ccc(C(=O)NCCc3ccc(Cl)c(Cl)c3)cc2s1` came out at > 50 µM

Please fill in: CC50 at 72 h reported for `Nc1nc2ccc(C(=O)NCCc3cccc(Cl)c3)cc2s1` = > 50 µM

Note to self: CC50 at 72 h recorded for `Nc1nc2ccc(C(=O)NCCc3ccc(Br)cc3)cc2s1` was > 25 µM

The value of CC50 at 72 h measured for the molecule `Nc1nc2ccc(C(=O)NCCc3ccc(Cl)cc3)cc2s1` turned out to be > 50 µM

// CC50 at 72 h lookup, molecule = `Nc1nc2ccc(C(=O)N(CCc3ccc(Cl)c(Cl)c3)C3CC3)cc2s1` , result: > 25 µM

---

study target: CYP2C9 (Homo sapiens, UniProt P11712)
Construct: purchased Promega; host or cells: baculovirus-infected insect cells
Sequence (P11712 whole entry): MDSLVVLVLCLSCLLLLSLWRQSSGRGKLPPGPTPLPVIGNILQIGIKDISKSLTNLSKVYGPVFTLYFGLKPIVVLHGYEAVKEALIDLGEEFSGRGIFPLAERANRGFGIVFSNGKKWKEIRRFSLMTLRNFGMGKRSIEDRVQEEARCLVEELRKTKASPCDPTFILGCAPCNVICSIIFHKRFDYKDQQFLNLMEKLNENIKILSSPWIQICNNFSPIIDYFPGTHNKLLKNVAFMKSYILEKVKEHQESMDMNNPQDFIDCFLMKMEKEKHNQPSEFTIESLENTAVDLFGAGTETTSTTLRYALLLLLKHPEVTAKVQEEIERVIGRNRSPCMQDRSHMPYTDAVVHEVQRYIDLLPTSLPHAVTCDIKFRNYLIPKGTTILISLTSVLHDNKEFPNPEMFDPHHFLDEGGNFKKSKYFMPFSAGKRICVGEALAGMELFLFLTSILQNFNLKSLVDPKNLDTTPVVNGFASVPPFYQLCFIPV
assay text: Cytochrome P450 assay (P450-Glo), isoform 2C9
Format: in vitro ADME
From the text: 3A4. The Promega P450-Glo assay platform was used with microsomal preparations of cytochrome P450s from baculovirus-infected insect cells. […]
parameter measured: IC50 (µM)
Write it as a number; the unit µM goes unstated.

Value sought: IC50, system CYP2C9 (Homo sapiens, UniProt P11712), item `Nc1nc2ccc(C(=O)NCCc3cccc(Cl)c3)cc2s1` . Result: 35.2

---

study target: CYP2C19 (Homo sapiens)
Construct: purchased Promega; host or cells: baculovirus-infected insect cells
assay text: Cytochrome P450 assay (P450-Glo), isoform 2C19
Format: in vitro ADME
condition set: human; at 10 µM compound concentration; read-out: CYP 2C19 % residual activity
Description: 3A4. The Promega P450-Glo assay platform was used with microsomal preparations of cytochrome P450s from baculovirus-infected insect cells. […]
parameter measured: activity at 10 µM (%)
Unit % implied. Number only.

Query Nc1nc2ccc(C(=O)N(CCc3ccc(Cl)c(Cl)c3)c3ccccc3)cc2s1 [Compound 1e] on CYP2C19 (Homo sapiens); activity at 10 µM returned: 31.1

---

assay text: Cytotoxicity assay (MTT) on THP-1-derived macrophages
Format: cell-based, Human
condition set: human, THP-1-derived macrophages, upper limit of CC50 interval; read-out: THP1 CC50 upper limit
parameter measured: CC50 at 72 h

Some entries whose results are on file:
CC50 at 72 h for `Nc1nc2ccc(C(=O)NCCc3cccc(Br)c3)cc2s1` is < 100 µM

Documented CC50 at 72 h of `Nc1nc2ccc(C(=O)NCCc3cccc(Cl)c3)cc2s1` : < 100 µM

In plain terms, `Nc1nc2ccc(C(=O)NCCc3ccc(Cl)c(Cl)c3)cc2s1` has a documented CC50 at 72 h of < 100 µM

`Nc1nc2ccc(C(=O)NCCc3ccc(Br)cc3)cc2s1` yielded CC50 at 72 h of < 50 µM

In plain terms, `Nc1nc2ccc(C(=O)N(CCc3ccc(Cl)c(Cl)c3)C3CC3)cc2s1` has a documented CC50 at 72 h of < 50 µM

Further cases:
The compound identified as `Nc1nc2ccc(C(=O)NCCc3ccc(Cl)cc3)cc2s1` registered its CC50 at 72 h at < 100 µM

CC50 at 72 h measured on `Nc1nc2ccc(CN(Cc3ccc(Cl)c(Cl)c3)C3CC3)cc2s1` = < 50 µM

---

study target: LmPTR1 (Leishmania major)
Sequence (Q01782 whole entry): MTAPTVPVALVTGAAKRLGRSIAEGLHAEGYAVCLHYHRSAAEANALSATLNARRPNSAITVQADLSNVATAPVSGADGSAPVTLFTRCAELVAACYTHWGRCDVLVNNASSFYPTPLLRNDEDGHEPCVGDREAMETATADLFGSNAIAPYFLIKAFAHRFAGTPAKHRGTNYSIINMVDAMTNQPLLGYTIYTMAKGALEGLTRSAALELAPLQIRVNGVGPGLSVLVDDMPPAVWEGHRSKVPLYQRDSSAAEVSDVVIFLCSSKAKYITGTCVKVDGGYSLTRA
assay text: LmPTR1 indirect (cytochrome c-coupled) enzyme assay
Assay type: biochemical
condition set: at 50 μM
Method: The in vitro assays used in the current study were based on those reported in the literature. As PTR1 enzymes use dihydrobiopterin (H2B) as a substrate and also require NADPH for the reaction, the reduction of H2B to tetrahydrobiopterin by PTR1 is nonenzymatically linked with the reduction of cytochrome c in this assay, which is detected at 550 nm. The formation of cyt c Fe^2+ results in an increase in the photometric readout. […] The slope of each assay well was calculated. […]
parameter measured: inhibition at 50 µM
State the value, then name its unit.

Form: molecule = `Nc1nc2ccc(C(=O)NCCc3ccc(Cl)c(Cl)c3)cc2s1` ; inhibition at 50 µM = 21%

Others:
// inhibition at 50 µM value for Nc1nc2ccccc2n1Cc1ccc(Cl)c(Cl)c1 [I, reference compound] : 75%

---

study target: CYP2D6 (Homo sapiens, UniProt P10635)
Construct: purchased Promega; host or cells: baculovirus-infected insect cells
Sequence (P10635 whole entry): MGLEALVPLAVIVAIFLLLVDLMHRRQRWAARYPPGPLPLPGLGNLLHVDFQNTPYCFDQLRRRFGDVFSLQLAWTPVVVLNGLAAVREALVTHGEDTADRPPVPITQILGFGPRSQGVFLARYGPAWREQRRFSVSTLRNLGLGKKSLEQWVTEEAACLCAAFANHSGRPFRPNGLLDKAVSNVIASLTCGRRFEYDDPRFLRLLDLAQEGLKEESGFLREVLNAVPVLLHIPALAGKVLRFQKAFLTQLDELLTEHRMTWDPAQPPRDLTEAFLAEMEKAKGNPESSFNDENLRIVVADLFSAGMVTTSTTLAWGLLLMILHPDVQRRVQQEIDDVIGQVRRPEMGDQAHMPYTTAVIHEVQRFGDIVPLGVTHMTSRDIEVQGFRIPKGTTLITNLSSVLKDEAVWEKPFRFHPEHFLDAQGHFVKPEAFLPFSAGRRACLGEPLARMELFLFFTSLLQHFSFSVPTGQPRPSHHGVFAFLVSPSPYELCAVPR
assay text: Cytochrome P450 assay (P450-Glo), isoform 2D6
Type: in vitro ADME
condition set: human; at 10 µM compound concentration; read-out: CYP 2D6 % residual activity
parameter measured: activity at 10 µM (%)
Number only, in %; omit the unit.

Observed activity at 10 µM on CYP2D6 (Homo sapiens, UniProt P10635), entry `Nc1nc2ccc(C(=O)N(CCc3ccc(Cl)c(Cl)c3)c3ccccc3)cc2s1` , equals 59.9

---

study target: CYP2C19 (Homo sapiens)
Construct: purchased Promega; host or cells: baculovirus-infected insect cells
assay text: Cytochrome P450 assay (P450-Glo), isoform 2C19
Format: in vitro ADME
condition set: read-out: CYP 2C19 IC50
Each entry below carries its recorded log10(IC50).
The base-10 logarithm of IC50, taken with IC50 in µM, is what appears here.

Worked cases, log10(IC50) given:
Noted for Nc1nc2ccc(C(=O)NCCc3ccccc3)cc2s1 [Compound 2a] : its log10(IC50) reads 1.41

Memo: Nc1nc2ccc(C(=O)NCCc3cccc(Br)c3)cc2s1 [Compound 2d] , reported log10(IC50): 0.46

Nc1nc2ccc(C(=O)N(Cc3ccc(Cl)c(Cl)c3)C3CC3)cc2s1 [Compound 1c] has a reported log10(IC50) of 0.46

Consider the record given below.
// sample Nc1nc2ccc(C(=O)NCCc3ccc(Cl)cc3)cc2s1 [Compound 2c] , its log10(IC50) was 0.62

---

study target: TbPTR1 (Trypanosoma brucei brucei)
Sequence (O76290 1-268): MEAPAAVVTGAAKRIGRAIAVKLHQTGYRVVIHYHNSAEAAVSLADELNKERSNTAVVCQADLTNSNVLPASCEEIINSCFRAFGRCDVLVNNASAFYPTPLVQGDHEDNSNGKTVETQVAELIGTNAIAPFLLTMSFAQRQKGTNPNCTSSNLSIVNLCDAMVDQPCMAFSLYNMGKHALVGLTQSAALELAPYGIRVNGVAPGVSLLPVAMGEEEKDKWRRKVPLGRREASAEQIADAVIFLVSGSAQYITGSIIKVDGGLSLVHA
assay text: TbPTR1 indirect (cytochrome c-coupled) enzyme assay
Type: biochemical
condition set: indirect assay; triplicate, SD within ± 10% of the value
Entries whose IC50 is below 5 µM take criterion met; entries at or above 5 µM take criterion not met.

Exam item: Does the reported IC50 of the following compound sit strictly below 5 µM? `Nc1nc2ccc(C(=O)NCCc3ccccc3)cc2s1`
Marked response: criterion not met

Exam item: Hi there! Is IC50 for `Nc1nc2ccc(C(=O)N(CCc3ccc(Cl)c(Cl)c3)C3CC3)cc2s1` below 5 µM, do you know?
Marked response: criterion not met

Exam item: Report whether reported IC50 is lower than 5 µM (strictly) for `Nc1nc2ccc(C(=O)NCCc3ccc(Cl)cc3)cc2s1`
Marked response: criterion met

Further cases:
Exam item: Lab log: compare recorded IC50 with 5 µM; is it strictly lower for `Nc1nc2ccc(C(=O)NCCc3ccc(Br)cc3)cc2s1` ?
Marked response: criterion met

Exam item: Check if IC50 falls below 5 µM for `Nc1nc2ccc(C(=O)NCCc3cccc(Br)c3)cc2s1` .
Marked response: criterion met

Exam item: Please let me know if `Nc1nc2ccc(C(=O)N(Cc3ccc(Cl)c(Cl)c3)C3CC3)cc2s1` shows IC50 below 5 µM.
Marked response: criterion not met

Exam item: Is the reported IC50 for `Nc1nc2ccc(C(=O)NCCc3cccc(Cl)c3)cc2s1` strictly below 5 µM?
Marked response: criterion met

Exam item: Is IC50 of `Nc1nc2ccc(C(=O)NCCc3ccc(Cl)c(Cl)c3)cc2s1` strictly below 5 µM?
Marked response: criterion not met

Exam item: Hello, I'm reviewing records and need to know if IC50 of `Nc1nc2ccc(CN(Cc3ccc(Cl)c(Cl)c3)C3CC3)cc2s1` is below 5 µM. Could you check?
Marked response: criterion met

Exam item: Item Nc1nc2ccccc2n1Cc1ccc(Cl)c(Cl)c1 [I, reference compound] : IC50 beneath 5 µM, strictly?
Marked response: criterion met
